Each recorded value in this set is attributed to PubChem BioAssay (NCI).

Test system: SK-OV-3 ovarian
experiment: NCI tumour cell line growth inhibition, 48 h
attribute measured: TGI

Specify measured TGI for `COc1ccc(OC)c(-c2cc(C(=O)O)c3cc4ccccc4cc3n2)c1` .
> 100 µM

Specify measured TGI for `C=CCN(c1cc(OCc2ccccc2)c2c(c1)c(C)cn2S(=O)(=O)c1ccccc1)S(C)(=O)=O` .
> 100 µM

Next:
Specify measured TGI for `Cc1cccc2c(N)c3cccc(C(=O)NCCN4CCOCC4)c3nc12` .
16.9 µM

###

Tested on: RPMI-8226 leukemia
experiment: NCI tumour cell line growth inhibition, 48 h
attribute measured: GI50

Fill in GI50 for `O=c1cc(-c2ccccc2)nc2cc(-c3ccco3)[nH]n12` tested with RPMI-8226 leukemia.
13.7 µM

Fill in GI50 for `COc1cc([N+](=O)[O-])c(OC)cc1-c1nc2n(c1/C(N)=N/C(=N)N)CCS2` tested with RPMI-8226 leukemia.
> 100 µM

Now for another entry.
Fill in GI50 for `O=C1C(Cl)=C(Nc2cccc(O)c2)C(=O)N1c1ccc(Cl)cc1Cl` tested with RPMI-8226 leukemia.
7.55 µM

###

Test system: SK-OV-3 ovarian
experiment: NCI tumour cell line growth inhibition, 48 h
attribute measured: TGI

Specify measured TGI for CCCCCCCCCCCCCC(=O)OC1C(CO)OC(=O)C1O (stereo unspecified) .
> 100 µM

Specify measured TGI for `CCN(CC)CCNc1ccc2ncn3c4c(OC)ccc(=O)c4c(O)c1c23` .
> 100 µM

Specify measured TGI for CCC(C)C(NC(=O)c1c2ccccc2nc2ccccc12)C(=O)O (stereo unspecified) .
> 100 µM

Specify measured TGI for Cc1cn(C2CC(N=[N+]=[N-])C(C(=O)O)O2)c(=O)[nH]c1=O (stereo unspecified) .
> 100 µM

Specify measured TGI for `CC(C)N(C(=O)c1ccc(NCc2cc(O)ccc2O)cc1)C(C)C` .
> 100 µM

Next:
Specify measured TGI for `CN/N=C(/CC(=O)c1sc(-n2nc(-c3ccccc3)cc2-c2ccccc2)nc1C)C(=O)Nc1ccc(Cl)c(Cl)c1` .
> 100 µM

###

Listing of recorded TGI by entry.
Tested on: MALME-3M melanoma
experiment: NCI tumour cell line growth inhibition, 48 h

Examples from the recorded data:
Specify measured TGI for `CO[C@]12CCC(=O)N1C=Cc1c2[nH]c2ccccc12` .
> 100 µM

Specify measured TGI for `CC(C)NCCCCCNc1cc(O)cc2cccnc12` .
> 100 µM

Now for another entry.
Specify measured TGI for COC1CC(n2ccc(=O)[nH]c2=O)OC1CO (stereo not drawn) .
> 100 µM

###

Tested on: K-562 leukemia
experiment: NCI tumour cell line growth inhibition, 48 h
Listing of recorded TGI by entry.

Specify measured TGI for `NS(=O)(=O)c1ccc(N=Nc2nc3[nH]cnc(=S)c3[nH]2)cc1` .
> 53.1 µM

Specify measured TGI for CC(=O)O[C@]12CCCCC1C1(O)C(O)CCCC[C@H]12 (some centres undefined) .
> 100 µM

Specify measured TGI for CC(=O)OC1CC(C)c2c(Cl)ncnc21 (centres undefined) .
> 100 µM

Specify measured TGI for `CN/N=C(/CC(=O)c1sc(-n2nc(-c3ccccc3)cc2-c2ccccc2)nc1C)C(=O)Nc1ccc(Cl)c(Cl)c1` .
> 100 µM

Specify measured TGI for Cc1cn(CCCCOC(=O)NC(CCCNC(N)=O)C(=O)O)c(=O)[nH]c1=O (centres undefined) .
> 100 µM

Next:
Specify measured TGI for `O=C1C=C(NCCc2cc(Cl)c(O)c(Cl)c2)C(=O)c2[nH]cnc21` .
55.4 µM

Specify measured TGI for N#CC1C(=O)NC2=C(CCOc3c2ccc2ccccc32)C1c1ccc(F)cc1 (centres undefined) .
> 100 µM

Specify measured TGI for Oc1c2c(c3c4c1N=CC=4CCN=3)C1(C=C(Br)C(O)C(Br)=C1)CCN2 (centres undefined) .
> 21 µM

Specify measured TGI for `COc1ccc(/C(Cl)=C(\CNc2ccccn2)c2ccccc2)cc1OC` .
> 100 µM

Specify measured TGI for `O=C1C(Cl)=C(Nc2cccc(O)c2)C(=O)N1c1ccc(Cl)cc1Cl` .
58.1 µM

Specify measured TGI for `Clc1ccc2c(Cl)nc(-c3ccccc3)nc2c1` .
> 100 µM

Specify measured TGI for COCO[C@@H]1CC2C=Nc3cc(OCc4ccccc4)c(OC)cc3C(=O)N2C1 (some centres undefined) .
> 100 µM

Specify measured TGI for `Cc1nc2sc(C(=O)Nc3cccc(Cl)c3C)c(N)c2cc1C(=O)c1ccccc1` .
> 50 µM

Specify measured TGI for NC(N)=NCCCC(NCc1c2ccccc2[n+]([O-])c2ccccc12)C(=O)O (centres undefined) .
> 100 µM

###

Tested on: SF-268 CNS
experiment: NCI tumour cell line growth inhibition, 48 h
attribute measured: TGI

Specify measured TGI for `CCOC(=O)NC(C(C(=O)OCC)C(=O)OCC)(C(F)(F)F)C(F)(F)F` .
> 100 µM

Specify measured TGI for `COc1cc(/C=N/Nc2ncnc3c2cnn3Cc2ccccc2)ccc1O` .
14.3 µM

Specify measured TGI for COC(=O)C(C(=O)C(=O)Nc1ccc([N+](=O)[O-])cc1)c1nc2cc(C)c(C)cc2[nH]c1=O (centres undefined) .
> 100 µM

Next:
Specify measured TGI for `O=[N+]([O-])c1cc(C(F)(F)F)ccc1S(=O)(=O)N[C@@H]1CCCC[C@H]1NS(=O)(=O)c1ccc(C(F)(F)F)cc1[N+](=O)[O-]` .
7.24 µM

Specify measured TGI for `C=C(CN(C)C)C(=O)c1ccc(OC)cc1` .
50.5 µM

Specify measured TGI for `Cc1nc2ccc(S(=O)(=O)Nc3ccccc3Cl)cc2c(=O)n1NC(=O)CNc1ccccc1Cl` .
> 100 µM

Specify measured TGI for `COc1ccc(C(=O)c2cc(OC)c(OC)c(OC)c2)cc1/C=C/C(=O)c1ccc2c(c1)OCO2` .
> 100 µM

Specify measured TGI for Nc1nc(NCC2(CO)CC(CCc3ccccc3)C2)cc(=O)[nH]1 (centres undefined) .
> 100 µM

Specify measured TGI for `O=c1cc(-c2ccccc2)nc2cc(-c3ccco3)[nH]n12` .
> 100 µM

Specify measured TGI for NC(=O)OCC(COc1ccc(Cl)cc1)OC(=O)c1cc([N+](=O)[O-])cc([N+](=O)[O-])c1 (centres undefined) .
> 100 µM

Specify measured TGI for COC(=O)C1=C(OC(=O)/C(=C/c2c(F)cccc2F)c2ccccc2)C(C(=O)OC)[C@@]2(O)[C@@H](C(=O)OC)[C@H](C)C[C@@H]1[C@@H]2C(=O)OC (some centres undefined) .
> 100 µM

Specify measured TGI for COC1CC(n2ccc(=O)[nH]c2=O)OC1CO (centres undefined) .
> 100 µM

Specify measured TGI for CC(=O)OC1CC(C)c2c(Cl)ncnc21 (centres undefined) .
> 100 µM

Specify measured TGI for `C[N+]1(CCCC[N+]2(C)CCCCCCC2)CCCCCCC1` .
> 100 µM

###

Tested on: CCRF-CEM leukemia
experiment: NCI tumour cell line growth inhibition, 48 h
Where a SMILES comes first, the peptide text is derived from it. [ ]: non-standard residue; d: D form. The star is where a group is joined. ξ: configuration not given here. ξW = NC(Cc1c[nH]c2ccccc12)C(=O)O; X30 = O=C(O)[C@H]1CCC[C@H]1N*; ξF = NC(Cc1ccccc1)C(=O)O; Boc = CC(C)(C)OC(=O)*; ξK = NCCCCC(N)C(=O)O; ξT = CC(O)C(N)C(=O)O; OBn = c1ccc(CO*)cc1; tBu = CC(C)(C)*
Listing of recorded TGI by entry.

Examples from the recorded data:
Specify measured TGI for `COc1cc(/C=N/Nc2ncnc3c2cnn3Cc2ccccc2)ccc1O` .
> 25 µM

Specify measured TGI for ClCCCC1COc2ccccc2O1 (stereo not drawn) .
> 100 µM

Specify measured TGI for `Cc1ccc(Nc2cc(=O)[nH]c(=O)[nH]2)cc1CS` .
> 100 µM

Specify measured TGI for CC1=C2c3ccccc3N(S(=O)(=O)c3ccccc3)[C@H]2[C@H](C(=O)N2C3CC4CC[C@@]3(CS2(=O)=O)C4(C)C)CC1 (stereo partly drawn) .
> 100 µM

Specify measured TGI for CN1CCc2cc(O)c3cc2C1Cc1ccc(cc1)Oc1cc(ccc1O)CC1c2c(cc4c(c2O3)OCO4)CCN1C (stereo not drawn) .
> 100 µM

Specify measured TGI for `O=C(/C=C/c1cccs1)c1ccc(Cl)s1` .
59.5 µM

Specify measured TGI for `Cc1ccc(-c2n[nH]c(=O)n2N2C(=O)C=CC2=O)cc1` .
> 100 µM

Specify measured TGI for CC(OC(C)(C)C)C(NC(=O)C(CCCCNC(=O)OC(C)(C)C)NC(=O)C(Cc1c[nH]c2ccccc12)NC(=O)C(N)Cc1ccccc1)C(=O)NC(Cc1ccccc1)C(=O)N[C@@H]1CCC[C@@H]1C(=O)O (stereo partly drawn) (H-[ξF][ξW][ξK](Boc)[ξT](tBu)[ξF]-X30) .
92.4 µM

Specify measured TGI for O=C1CCCCCCCCCCC1CN(Cc1ccccc1)Cc1ccccc1 (stereo not drawn) .
50.2 µM

Specify measured TGI for COC(=O)c1c2c(cc3c1CC1(C3)Cc3ccc4c(c3C1=O)CCC4)CCC2 (stereo not drawn) .
> 81.8 µM

Next:
Specify measured TGI for CC(C)C(NC(=O)CNC(=O)C1CCCN1C(=O)C(NC(=O)OC(C)(C)C)C(C)C)C(=O)NCC(=O)OCc1ccccc1 (stereo not drawn) (Boc-VPGVG-OBn; configuration not given here) .
> 100 µM

Specify measured TGI for `Nc1ccc(-c2nc3ccccc3s2)cc1F` .
> 100 µM

Specify measured TGI for `CCCCC/C=C\C/C=C/CCCCCCCCNC(=O)Nc1ccc([N+](=O)[O-])cc1` .
> 100 µM

Specify measured TGI for NC(=O)OCC(COc1ccc(Cl)cc1)OC(=O)c1cc([N+](=O)[O-])cc([N+](=O)[O-])c1 (stereo not drawn) .
> 100 µM
